- experimentalDetails: Solid-state stability (HPLC purity and XRPD crystal form on storage)
- Type: physicochemical
- measurementContext: 25°C /60%RH/open, 2 weeks, HPLC
Structures can show the parent of a compound that is named as a salt.
metricName: Purity (area %)

> print(dat)
                                    compound       metricname  testvalue
 1  CNCc1ccc(NS(=O)(=O)c2ccsc2)c(-c2ccco2)c1 [benzene sulfonate crystal form J]  Purity (area %)      98.85
 2  CNCc1ccc(NS(=O)(=O)c2ccsc2)c(-c2ccco2)c1 [hydrochloride crystal form C]  Purity (area %)      98.92
 3  CNCc1ccc(NS(=O)(=O)c2ccsc2)c(-c2ccco2)c1 [Tartrate crystal form H]  Purity (area %)      98.62
 4  CNCc1ccc(NS(=O)(=O)c2ccsc2)c(-c2ccco2)c1 [Phosphate crystal form G]  Purity (area %)      98.09
 5  CNCc1ccc(NS(=O)(=O)c2ccsc2)c(-c2ccco2)c1 [sulfate crystal form D]  Purity (area %)      98.65
 6  CNCc1ccc(NS(=O)(=O)c2ccsc2)c(-c2ccco2)c1 [free crystal form A]  Purity (area %)      98.14
 7  CNCc1ccc(NS(=O)(=O)c2ccsc2)c(-c2ccco2)c1 [fumarate crystal form B]  Purity (area %)      98.47
 8  CNCc1ccc(NS(=O)(=O)c2ccsc2)c(-c2ccco2)c1 [succinate crystal form E]  Purity (area %)      98.86
 9  CNCc1ccc(NS(=O)(=O)c2ccsc2)c(-c2ccco2)c1 [Malonate crystal form K]  Purity (area %)      98.61
10  CNCc1ccc(NS(=O)(=O)c2ccsc2)c(-c2ccco2)c1 [malate crystal form F]  Purity (area %)       98.7
11  CNCc1ccc(NS(=O)(=O)c2ccsc2)c(-c2ccco2)c1 [Pyroglutamate crystal form I]  Purity (area %)      98.58

* * *

- experimentalDetails: Solid-state stability (HPLC purity and XRPD crystal form on storage)
- Format: physicochemical
- measurementContext: 40°C /75%RH/open, 2 weeks, HPLC
metricName: Purity (area %)

> print(dat)
                                   molecule       metricname  outputunit  testvalue
1  CNCc1ccc(NS(=O)(=O)c2ccsc2)c(-c2ccco2)c1 [Tartrate crystal form H]  Purity (area %)      area %       98.6
2  CNCc1ccc(NS(=O)(=O)c2ccsc2)c(-c2ccco2)c1 [Phosphate crystal form G]  Purity (area %)      area %      98.06
3  CNCc1ccc(NS(=O)(=O)c2ccsc2)c(-c2ccco2)c1 [free crystal form A]  Purity (area %)      area %       98.2
4  CNCc1ccc(NS(=O)(=O)c2ccsc2)c(-c2ccco2)c1 [Malonate crystal form K]  Purity (area %)      area %      98.58
5  CNCc1ccc(NS(=O)(=O)c2ccsc2)c(-c2ccco2)c1 [succinate crystal form E]  Purity (area %)      area %      98.72
6  CNCc1ccc(NS(=O)(=O)c2ccsc2)c(-c2ccco2)c1 [Pyroglutamate crystal form I]  Purity (area %)      area %      98.54
7  CNCc1ccc(NS(=O)(=O)c2ccsc2)c(-c2ccco2)c1 [fumarate crystal form B]  Purity (area %)      area %       98.5
8  CNCc1ccc(NS(=O)(=O)c2ccsc2)c(-c2ccco2)c1 [malate crystal form F]  Purity (area %)      area %      98.75
